These entries and their values trace back to patent US20130196960A1.

Molecular target: human CB2 (Homo sapiens)
Experiment: 35S GTPγS binding functional assay, agonist mode, hCB2 HEK-293 membranes
Type: biochemical
Details: GTPγS agonist mode, HEK-293 membranes; read-out: hCB2 EC50 (GTPyS ag, nM, HEK)
observable: EC50

structure: Cc1c(C(=O)C2C(C)(C)C2(C)C)c2ccsc2n1CCN1CCOCC1
result: < 100 nM

structure: Cc1c(C(=O)c2ccc(Cl)cc2Cl)c2ccsc2n1CCN1CCOCC1
result: 100 to 1000 nM

structure: Cc1c(C(=O)c2cccc(Cl)c2Cl)c2ccsc2n1CCN1CCCCC1
result: < 100 nM

# EC50 of Cc1c(C(=O)c2cccc(F)c2F)c2ccsc2n1CCN1CCOCC1 = 100 to 1000 nM

Value of measured EC50 for the entry Cc1c(C(=O)c2cccc(Cl)c2Cl)c2cc(Cl)sc2n1CCN1CCOCC1 : 100 to 1000 nM

---

# EC50 per record follows
Target: human CB2 (Homo sapiens, UniProt P34972)
Sequence (P34972 whole entry): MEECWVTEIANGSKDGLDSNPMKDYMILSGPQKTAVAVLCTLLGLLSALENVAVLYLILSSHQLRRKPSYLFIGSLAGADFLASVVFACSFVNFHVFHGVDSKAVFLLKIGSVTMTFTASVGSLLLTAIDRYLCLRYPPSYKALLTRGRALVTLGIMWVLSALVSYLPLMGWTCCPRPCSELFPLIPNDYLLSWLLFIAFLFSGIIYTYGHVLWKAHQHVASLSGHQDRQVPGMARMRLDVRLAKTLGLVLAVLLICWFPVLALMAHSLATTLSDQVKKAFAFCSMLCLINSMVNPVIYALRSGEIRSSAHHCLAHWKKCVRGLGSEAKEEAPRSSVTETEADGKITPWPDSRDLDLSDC
Experiment: 35S GTPγS binding functional assay, agonist mode, hCB2 HEK-293 membranes
Type: biochemical
Settings: GTPγS agonist mode, HEK-293 membranes; read-out: hCB2 EC50 (GTPyS ag, nM, HEK)

Illustrative cases are given below, each with its answer.
structure: COCCn1c(C)c(C(=O)c2cccc(Cl)c2Cl)c2ccsc21
result: 100 to 1000 nM
//
structure: Cc1c(C(=O)c2cccc(Cl)c2Cl)c2ccsc2n1CC1CCOCC1
result: < 100 nM
//
structure: Cc1c(C(=O)C2CCCCC2)c2ccsc2n1CCN1CCOCC1
result: 100 to 1000 nM

Then this molecule:
# molecule Cc1c(C(=O)c2cccc(Cl)c2Cl)c2ccsc2n1CCC1CCOCC1 ; its EC50 = < 100 nM
